# test_description: Quantitative High-Throughput drug screen in 47 multiple myeloma cell lines against the NCATS MIPE library collection: NCIH929_DSMZ cell viability assay (AID 1918978); further: nearly all actives have a fitted effect of over 35% in size; further: potency means the concentration at half of the fitted maximal effect
# condition_set: NCI-H929 myeloma viability, CellTiter-Glo ATP, 48 h; series mostly up to 45.8 µM
Results filed as inconclusive are left out. Activity calls are given as the source filed them. The call rests on the fitted dose curve; in most records, active means well fitted cell-killing curve with a large enough effect; inconclusive means small, poorly fitted or top-dose-only effect; inactive means no such curve, though single readings can be large or run the other way.

{"compound": "CCCCCC[C@H]1C(=O)O[C@H](C)[C@H](NC(=O)c2cccc(NC=O)c2O)C(=O)O[C@@H](C)[C@@H]1OC(=O)CC(C)C", "Potency": "332 nM (active)"}
{"compound": "C[C@H]1CCCC=CC2C[C@H](O)C[C@@H]2[C@H](O)C=CC(=O)O1 (some centres undefined)", "Potency": "inactive"}
{"compound": "CC(C)(C)[C@]1(O)C[C@@H]2OC(=O)C[C@@]23C(=O)O[C@@H]2OC(=O)[C@H](O)C213 (some centres undefined)", "Potency": "inactive"}
{"compound": "COc1cc2cc(c1Cl)N(C)C(=O)C[C@H](OC(=O)C(C)C)[C@]1(C)O[C@H]1[C@H](C)[C@@H]1C[C@@](O)(NC(=O)O1)[C@H](OC)C=CC=C(C)C2", "Potency": "inactive"}
{"compound": "CCN(CC)C(=O)c1ccc(C2=CC3(CCNCC3)Oc3cccc(O)c32)cc1", "Potency": "inactive"}
{"compound": "COc1cc([C@@H]2c3cc4c(cc3[C@@H](O)C3COC(=O)C32)OCO4)cc(OC)c1O (some centres undefined)", "Potency": "132 nM (active)"}
{"compound": "CC(N[C@H]1C[C@H]1c1ccccc1)c1ccc2c(c1)OCCO2 (some centres undefined)", "Potency": "inactive"}
{"compound": "CN[C@@H]1Cc2cccc3[nH]c(=O)n(c23)C1", "Potency": "inactive"}
{"compound": "C[C@@H]1CC[C@@]2(OC1)O[C@H]1C[C@H]3[C@@H]4CC=C5C[C@@H](O[C@@H]6O[C@H](CO)[C@@H](O[C@@H]7O[C@@H](C)[C@H](O)[C@@H](O)[C@@H]7O)[C@H](O)[C@@H]6O[C@@H]6O[C@@H](C)[C@H](O)[C@@H](O)[C@@H]6O)CC[C@]5(C)[C@@H]4CC[C@]3(C)[C@@H]1[C@H]2C", "Potency": "4180 nM (active)"}
